Provenance of the data: patent US20200390902A1

# Lookup of reported % Binding keyed by entry
Target Or Test System: T1, HAAH catalytic domain (human, UniProt Q12797)
T1 sequence: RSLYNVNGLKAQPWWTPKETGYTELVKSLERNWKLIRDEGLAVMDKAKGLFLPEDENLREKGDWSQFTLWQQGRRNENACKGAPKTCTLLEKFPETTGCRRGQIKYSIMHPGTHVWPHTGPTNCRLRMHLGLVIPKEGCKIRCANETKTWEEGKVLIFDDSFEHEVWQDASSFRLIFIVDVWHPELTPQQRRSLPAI
Procedure Text: ELISA on plates coated with HAAH catalytic domain
Protocol: The catalytic domain of HAAH (HAAH-cat) is exposed at the surface of HAAH-expressing cancer cells. The binding of SNS622-MC-DM1 at different drug-antibody ratio (DAR) and pH to HAAH-cat was measured using IgG1λ as control. The plates were coated with HAAH by treating with […] HAAH catalytic domain overnight. […] The plates were read at 450 nm using a 96-well plate reader (ELx808, BioTek). […]
# unit: % | format: bare number

Binder	Units Of Measure	Observed Result
SNS622-DM1C1 (antibody, V domains shown, MC-DM1 on cysteine thiols of reduced disulfide bonds, positions not given; reaction DAR 10:1, pH 7, final DAR 5.08; MC-DM1 on cysteine thiols of reduced disulfide bonds, positions not given) VH: QVQLQQSGPGLVKPSQTLSLTCAISGDSVSSNSAAWNWIRQSPSRGLEWLGRTYYRSKWYNDYAVSVKSRITINPDTSKNQFSLQLNSVTPEDTAVYYCARTGYSSSWVVNFDYWGQGTLVTVSS VL: QPVLTQSPSASGTPGQRVTISCSGSSSNIGSNYVYWYQQLPGTAPKLLIYKNNQRPSGVPDRFSGSKSGTAASLAISGLQSEDEADYYCAAWDDSLRGYVFGTGTKLTVLG	%	11.7
SNS622-DM1B2 (antibody, V domains shown, MC-DM1 on cysteine thiols of reduced disulfide bonds, positions not given; reaction DAR 5:1, pH 8, final DAR 3.36; MC-DM1 on cysteine thiols of reduced disulfide bonds, positions not given) VH: QVQLQQSGPGLVKPSQTLSLTCAISGDSVSSNSAAWNWIRQSPSRGLEWLGRTYYRSKWYNDYAVSVKSRITINPDTSKNQFSLQLNSVTPEDTAVYYCARTGYSSSWVVNFDYWGQGTLVTVSS VL: QPVLTQSPSASGTPGQRVTISCSGSSSNIGSNYVYWYQQLPGTAPKLLIYKNNQRPSGVPDRFSGSKSGTAASLAISGLQSEDEADYYCAAWDDSLRGYVFGTGTKLTVLG	%	89.5
SNS622-DM1B1 (antibody, V domains shown, MC-DM1 on cysteine thiols of reduced disulfide bonds, positions not given; reaction DAR 5:1, pH 7, final DAR 3.22; MC-DM1 on cysteine thiols of reduced disulfide bonds, positions not given) VH: QVQLQQSGPGLVKPSQTLSLTCAISGDSVSSNSAAWNWIRQSPSRGLEWLGRTYYRSKWYNDYAVSVKSRITINPDTSKNQFSLQLNSVTPEDTAVYYCARTGYSSSWVVNFDYWGQGTLVTVSS VL: QPVLTQSPSASGTPGQRVTISCSGSSSNIGSNYVYWYQQLPGTAPKLLIYKNNQRPSGVPDRFSGSKSGTAASLAISGLQSEDEADYYCAAWDDSLRGYVFGTGTKLTVLG	%	81.2

Kindly note the recorded % Binding for SNS622-DM1A1 (antibody, V domains shown, MC-DM1 on cysteine thiols of reduced disulfide bonds, positions not given; reaction DAR 2.5:1, pH 7, final DAR 2.00; MC-DM1 on cysteine thiols of reduced disulfide bonds, positions not given) VH: QVQLQQSGPGLVKPSQTLSLTCAISGDSVSSNSAAWNWIRQSPSRGLEWLGRTYYRSKWYNDYAVSVKSRITINPDTSKNQFSLQLNSVTPEDTAVYYCARTGYSSSWVVNFDYWGQGTLVTVSS VL: QPVLTQSPSASGTPGQRVTISCSGSSSNIGSNYVYWYQQLPGTAPKLLIYKNNQRPSGVPDRFSGSKSGTAASLAISGLQSEDEADYYCAAWDDSLRGYVFGTGTKLTVLG , which is 75.1
